tested on: ATP-dependent translocase ABCB1 (Homo sapiens, UniProt P08183)
Sequence (P08183 whole entry): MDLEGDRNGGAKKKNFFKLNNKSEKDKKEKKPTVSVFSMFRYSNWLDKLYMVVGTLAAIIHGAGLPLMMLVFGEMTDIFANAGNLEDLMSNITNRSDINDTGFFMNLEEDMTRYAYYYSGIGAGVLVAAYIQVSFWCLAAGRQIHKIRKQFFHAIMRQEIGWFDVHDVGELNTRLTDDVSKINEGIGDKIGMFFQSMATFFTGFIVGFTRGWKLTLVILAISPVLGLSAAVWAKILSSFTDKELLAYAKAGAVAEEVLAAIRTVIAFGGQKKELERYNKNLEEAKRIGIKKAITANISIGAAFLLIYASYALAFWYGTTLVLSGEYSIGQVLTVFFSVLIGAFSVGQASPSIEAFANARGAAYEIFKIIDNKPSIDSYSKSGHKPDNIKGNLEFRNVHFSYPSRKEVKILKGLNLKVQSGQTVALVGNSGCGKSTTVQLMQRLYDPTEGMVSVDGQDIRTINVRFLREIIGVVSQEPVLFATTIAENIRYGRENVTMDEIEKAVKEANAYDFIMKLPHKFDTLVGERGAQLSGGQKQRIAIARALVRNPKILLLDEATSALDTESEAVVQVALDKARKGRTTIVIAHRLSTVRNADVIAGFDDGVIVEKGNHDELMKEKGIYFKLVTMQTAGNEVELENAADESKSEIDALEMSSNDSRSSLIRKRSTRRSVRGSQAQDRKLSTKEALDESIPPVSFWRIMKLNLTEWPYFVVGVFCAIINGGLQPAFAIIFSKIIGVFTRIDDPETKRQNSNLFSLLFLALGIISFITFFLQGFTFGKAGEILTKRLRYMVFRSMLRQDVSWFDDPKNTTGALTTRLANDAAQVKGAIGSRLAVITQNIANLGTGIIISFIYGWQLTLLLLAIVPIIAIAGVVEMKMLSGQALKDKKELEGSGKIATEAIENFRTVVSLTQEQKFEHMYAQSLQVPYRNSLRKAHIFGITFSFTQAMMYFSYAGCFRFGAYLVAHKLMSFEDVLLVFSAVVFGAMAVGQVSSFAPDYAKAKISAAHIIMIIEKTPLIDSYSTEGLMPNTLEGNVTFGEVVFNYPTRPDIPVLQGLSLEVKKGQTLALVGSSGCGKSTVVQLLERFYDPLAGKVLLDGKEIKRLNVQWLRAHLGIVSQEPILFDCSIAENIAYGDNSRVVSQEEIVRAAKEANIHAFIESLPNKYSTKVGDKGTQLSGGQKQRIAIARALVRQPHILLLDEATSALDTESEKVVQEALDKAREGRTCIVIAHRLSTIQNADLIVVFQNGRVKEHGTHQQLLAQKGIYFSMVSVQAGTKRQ
test protocol: Inhibition of ABCB1 in human KBV1 cells after 10 mins by Calcein-AM microplate assay
Decision: IC50 beneath 6 µM gives class 1; IC50 meeting or exceeding 6 µM gives class 0.

Worked set:
COC(=O)c1ccc(-c2ccc(CN3CCc4cc(OC)c(OC)cc4C3)cc2)cc1NC(=O)c1ccc2ncccc2c1    class 0
COCCOCCOCCOc1cc2c(cc1OC)CCN(CCc1ccc(-c3ccc(C(=O)OC)c(NC(=O)c4ccc5ccccc5n4)c3)cc1)C2    class 1
COCCOCCOCCOc1cc2c(cc1OC)CCN(Cc1ccc(-c3ccc(C(=O)OC)c(NC(=O)c4ccc5ccccc5n4)c3)cc1)C2    class 1
COCCOCCOCCOc1cc2c(cc1OC)CN(Cc1ccc(-c3ccc(C(=O)OC)c(NC(=O)c4ccc5ncccc5c4)c3)cc1)CC2    class 0

--- query ---
Query block: hey, is IC50 for COC(=O)c1ccc(-c2ccc(CN3CCc4ccccc4C3)cc2)cc1NC(=O)c1ccc2ncccc2c1 lower than 6 µM or not?
Result block: class 1

---

tested on: ABCG2 (Homo sapiens)
Sequence (Q9UNQ0 whole entry): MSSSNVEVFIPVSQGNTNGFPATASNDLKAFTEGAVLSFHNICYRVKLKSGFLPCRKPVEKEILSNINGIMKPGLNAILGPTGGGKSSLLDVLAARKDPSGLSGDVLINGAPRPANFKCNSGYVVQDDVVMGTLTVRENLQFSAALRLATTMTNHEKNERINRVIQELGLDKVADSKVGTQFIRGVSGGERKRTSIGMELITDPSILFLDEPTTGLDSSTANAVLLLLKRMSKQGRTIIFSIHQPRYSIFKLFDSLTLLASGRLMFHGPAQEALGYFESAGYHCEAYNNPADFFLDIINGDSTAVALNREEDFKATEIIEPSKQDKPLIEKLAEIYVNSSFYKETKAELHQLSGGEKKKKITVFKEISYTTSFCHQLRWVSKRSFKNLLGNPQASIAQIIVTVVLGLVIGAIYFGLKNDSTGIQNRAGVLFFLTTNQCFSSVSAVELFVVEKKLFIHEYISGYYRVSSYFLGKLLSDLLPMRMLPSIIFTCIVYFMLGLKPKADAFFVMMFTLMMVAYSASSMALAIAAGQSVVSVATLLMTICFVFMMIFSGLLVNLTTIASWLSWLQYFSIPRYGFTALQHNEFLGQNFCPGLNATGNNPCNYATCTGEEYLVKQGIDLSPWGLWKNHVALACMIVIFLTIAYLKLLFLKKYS
test protocol: Inhibition of ABCG2 in human MCF7/Topo cells at 70 to 100 uM after 2 hrs by Hoechst 33342 microplate assay relative to 10 uM fumitremorgin
Assay type: cell-based
test settings: probe Hoechst 33342, read-out: Imax
Measured Emax at 2 h of individual entries
// note: answer is a bare numeric in %

// known answers, use as guide
COCCOCCOCCOc1cc2c(cc1OC)CN(Cc1ccc(-c3ccc(C(=O)OC)c(NC(=O)c4ccc5ccccc5n4)c3)cc1)CC2    114
COCCOCCOCCOc1cc2c(cc1OC)CCN(CCc1ccc(-c3ccc(C(=O)OC)c(NC(=O)c4ccc5ccccc5n4)c3)cc1)C2    98
COC(=O)c1ccc(-c2ccc(CCN3CCc4cc(OC)c(OC)cc4C3)cc2)cc1NC(=O)c1ccc2ccccc2n1    126
COCCOCCOCCOc1cc2c(cc1OC)CCN(Cc1ccc(-c3ccc(C(=O)OC)c(NC(=O)c4ccc5ccccc5n4)c3)cc1)C2    109
COCCOCCOCCOc1cc2c(cc1OCCOCCOCCOC)CN(Cc1ccc(-c3ccc(C(=O)OC)c(NC(=O)c4ccc5ccccc5n4)c3)cc1)CC2    103

Emax at 2 h in this record for COCCOCCOCCOc1cc2c(cc1OCCOCCOCCOC)CN(CCc1ccc(-c3ccc(C(=O)OC)c(NC(=O)c4ccc5ccccc5n4)c3)cc1)CC2 : 112

Emax at 2 h in this record for COc1ccc2c3c([nH]c2c1)[C@H](C=C(C)C)N1C(=O)[C@@H]2CCCN2C(=O)[C@@H]1C3 : 100

Emax at 2 h in this record for COC(=O)c1ccc(-c2ccc(CN3CCc4ccccc4C3)cc2)cc1NC(=O)c1ccc2ccccc2n1 : 85

Emax at 2 h in this record for COC(=O)c1ccc(-c2ccc(CN3CCc4cc(OC)c(OC)cc4C3)cc2)cc1NC(=O)c1ccc2ccccc2n1 : 87

Emax at 2 h in this record for COCCOCCOCCOc1cc2c(cc1OC)CN(Cc1ccc(-c3ccc(C(=O)OC)c(NC(=O)c4ccc5ncccc5c4)c3)cc1)CC2 : 67

Emax at 2 h in this record for COC(=O)c1ccc(C(=O)Nc2ccc(CCN3CCc4cc(OC)c(OC)cc4C3)cc2)cc1NC(=O)c1ccc2ccccc2n1 : 63

Emax at 2 h in this record for COc1cc2c(cc1OC)CN(CCc1ccc(NC(=O)c3cccc4c(=O)c5cccc(OC)c5[nH]c34)cc1)CC2 : 63

Emax at 2 h in this record for COC(=O)c1ccc(-c2ccc(CN3CCc4cc(OC)c(OC)cc4C3)cc2)cc1NC(=O)c1ccc2ncccc2c1 : 92

Emax at 2 h in this record for COc1cc2c(cc1OC)CN(CCc1ccc(NC(=O)c3cc(OC)c(OC)cc3NC(=O)c3cnc4ccccc4c3)cc1)CC2 : 69

Emax at 2 h in this record for COC(=O)c1ccc(-c2ccc(CCN3CCc4ccccc4C3)cc2)cc1NC(=O)c1ccc2ccccc2n1 : 90

Emax at 2 h in this record for COC(=O)c1ccc(-c2ccc(CN3CCc4ccccc4C3)cc2)cc1NC(=O)c1ccc2ncccc2c1 : 94
